The entries below are paired with their reported Tmax.
protocolDescription: Tmax in C57BL/6N mouse treated with JM6 (containing <0.4% Ro-61-8048) at 10 mg/kg, po and Ro-61-8048 at 0.05 mg/kg, po drugs administered via gavage by LC-MS/MS analysis
Assay type: ADME, organism-based
protocolConditions: in vivo
Express the result in min but write the number alone.

COc1ccc(S(=O)(=O)Nc2nc(-c3cccc([N+](=O)[O-])c3)c(CN3CCCCC3)s2)cc1OC	30

Consider now this further compound.
Query (compound): `COc1ccc(S(=O)(=O)Nc2nc(-c3cccc([N+](=O)[O-])c3)cs2)cc1OC` ; field requested: Tmax
60

These data points were gathered from ChEMBL document CHEMBL3526063.
